Molecular target: b-Raf (Homo sapiens, UniProt P15056, V600E)
Construct: endogenous in cells; host or cells: A2058 human melanoma cells
Sequence (P15056 whole entry V600E): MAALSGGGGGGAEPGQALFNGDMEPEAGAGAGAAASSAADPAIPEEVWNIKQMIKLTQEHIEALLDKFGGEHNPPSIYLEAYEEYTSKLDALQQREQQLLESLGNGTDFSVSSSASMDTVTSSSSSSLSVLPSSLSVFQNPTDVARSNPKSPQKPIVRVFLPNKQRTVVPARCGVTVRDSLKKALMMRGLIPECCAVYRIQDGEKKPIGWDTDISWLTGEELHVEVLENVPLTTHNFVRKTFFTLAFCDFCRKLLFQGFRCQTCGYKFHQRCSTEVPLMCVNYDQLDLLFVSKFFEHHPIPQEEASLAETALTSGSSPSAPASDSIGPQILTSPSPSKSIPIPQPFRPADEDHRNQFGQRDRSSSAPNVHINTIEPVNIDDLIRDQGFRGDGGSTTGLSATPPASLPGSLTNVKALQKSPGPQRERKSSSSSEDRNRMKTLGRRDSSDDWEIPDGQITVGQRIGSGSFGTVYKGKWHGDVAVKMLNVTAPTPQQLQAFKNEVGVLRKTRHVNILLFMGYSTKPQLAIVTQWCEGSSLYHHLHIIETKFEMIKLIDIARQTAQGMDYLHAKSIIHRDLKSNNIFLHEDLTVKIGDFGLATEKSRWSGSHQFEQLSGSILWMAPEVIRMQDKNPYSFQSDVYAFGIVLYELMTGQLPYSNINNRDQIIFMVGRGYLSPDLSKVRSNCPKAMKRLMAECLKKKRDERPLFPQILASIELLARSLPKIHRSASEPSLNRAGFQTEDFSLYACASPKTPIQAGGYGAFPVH
Experiment: Raf cellular assay (phospho-Mek1/2 ELISA in A2058 cells)
Type: cell-based
Settings: Table 2; human melanoma A2058 cells (b-Raf mutation), Mek1/2 Ser217/221 phosphorylation, 1 hour incubation; read-out: pMEK IC50
Method: Compounds of the present invention were evaluated for potency against b-Raf using a cellular assay as follows. The activity of Raf kinases in cells is determined by measuring the level of phosphorylation of Mek1/2 at serine 217/221, the site phosphorylated by Raf kinases in vivo. Mek1/2 Ser phosphorylation is measured using anti-phospho-Mek1/2 antibodies (Cell Signaling #9121) in an ELISA format. Healthy growing human melanoma A2058 cells (harboring a b-Raf mutation) are used for the assay. […]
// assign rule met if IC50 falls strictly below 2000 nM, else rule not met (ties count as rule not met)

Here's what some known entries look like.
[
  {
    "COMPOUND": "CCn1cc(CNc2nccc(-c3cn(C(C)C)nc3-c3cnc4[nH]ccc4c3)n2)cn1",
    "ASSIGNED_CATEGORY": "rule met"
  },
  {
    "COMPOUND": "CC(C)n1cc(-c2ccnc(NC[C@H](C)O)n2)c(-c2cnc3[nH]ccc3c2)n1",
    "ASSIGNED_CATEGORY": "rule met"
  },
  {
    "COMPOUND": "Cc1nc(CNc2nccc(-c3cn(C(C)C)nc3-c3cnc4[nH]ccc4c3)n2)c(C)o1",
    "ASSIGNED_CATEGORY": "rule met"
  }
]

Inquiry: API: query returns whether the compound falls strictly under 2000 nM in IC50. Query: CC(C)n1cc(-c2ccnc(NCC3CCOC3)n2)c(-c2cnc3[nH]ccc3c2)n1 (stereo not shown)
Reply text: rule met

Inquiry: Try the compound `Cc1nc2ncc(-c3nn(C(C)C)cc3-c3ccnc(NC[C@H](C)O)n3)cn2c1C`
Reply text: rule not met

Inquiry: Try the compound `C[C@H](O)CNc1nccc(-c2cn(CC#N)nc2-c2cnc3[nH]ccc3c2)n1`
Reply text: rule met

Inquiry: Try the compound `CNc1ncc(-c2nn(C(C)C)cc2-c2ccnc(NC[C@H](C)O)n2)cc1C`
Reply text: rule not met

###

molecular target: b-Raf (Homo sapiens, UniProt P15056, V600E); construct: endogenous in cells; host or cells: A2058 human melanoma cells; assay: Raf cellular assay (phospho-Mek1/2 ELISA in A2058 cells); format: cell-based; conditions: Table 3; human melanoma A2058 cells (b-Raf mutation), Mek1/2 Ser217/221 phosphorylation, 1 hour incubation; read-out: pMEK IC50
QUANTITY_NAME: IC50 (nM)
One number for each entry, in nM.

These solved cases illustrate the format of a correct answer.
[
  {
    "COMPOUND_STRUCTURE": "COc1cc(-c2nn(C3CC3)cc2-c2ccnc(N)n2)cnc1N",
    "TARGET_SYSTEM": "b-Raf (Homo sapiens, UniProt P15056, V600E)",
    "IC50, nM": 83.3
  },
  {
    "COMPOUND_STRUCTURE": "Cc1n[nH]c2ncc(-c3nn(C(C)(C)CO)cc3-c3ccnc(NCCC#N)n3)cc12",
    "TARGET_SYSTEM": "b-Raf (Homo sapiens, UniProt P15056, V600E)",
    "IC50, nM": 13.3
  },
  {
    "COMPOUND_STRUCTURE": "CC(=O)N1CCC(n2cc(-c3ccnc(NCC(F)F)n3)c(-c3cnc4[nH]cc(Cl)c4c3)n2)CC1",
    "TARGET_SYSTEM": "b-Raf (Homo sapiens, UniProt P15056, V600E)",
    "IC50, nM": 9.2
  },
  {
    "COMPOUND_STRUCTURE": "CC(C)(C)n1cc(-c2ccnc(N)n2)c(-c2cnc3[nH]cc(Cl)c3c2)n1",
    "TARGET_SYSTEM": "b-Raf (Homo sapiens, UniProt P15056, V600E)",
    "IC50, nM": 9.04
  },
  {
    "COMPOUND_STRUCTURE": "Cc1n[nH]c2ncc(-c3nn(CC(F)F)cc3-c3ccnc(NCCC#N)n3)cc12",
    "TARGET_SYSTEM": "b-Raf (Homo sapiens, UniProt P15056, V600E)",
    "IC50, nM": 4.94
  }
]

Give IC50 for all compounds that follow.
1. COc1nc(-c2nn(C(C)C)cc2-c2ccnc(NCCC#N)n2)cnc1N
2. CC(C)(C)n1cc(-c2ccnc(NCCC#N)n2)c(-c2cnc3c(c2)CCN3)n1
3. COc1nc(-c2nn(CC(F)F)cc2-c2ccnc(NCCC#N)n2)cnc1N
4. OCCNc1nccc(-c2cn(CC(F)F)nc2-c2cnc3[nH]cc(Cl)c3c2)n1

Reply text:
0.5
8.15
1
10.5
